# System: 301 cancer cell lines from different tumor types (OncoPanel; HD Biosciences)
# MEASUREMENT_DESCRIPTION: 2D cell viability inhibition assay (CellTiter-Glo) in cancer cell line panel
# Format: cell-based
# TEST_PARAMETERS: Homo sapiens, HL-60, HL60 cell line
# Description: In a larger screening study, compound 1 was evaluated across a broad cancer cell line panel (OncoPanel; HD Biosciences) composed of 301 cancer cell lines from different tumor types. 2D cell viability inhibition assays were performed in multiwell plates seeded with cells from the panel. […] Cultures were incubated for 168 hours after which the number of viable cells in each test well was assessed using the CellTiter-Glo® Luminescent Cell Viability Assay. […]
pEC50: −log10 of the molar value.

| SUBSTANCE_SMILES | pEC50 |
| --- | --- |
| CC(C)c1ccc(N(C)c2ccc3c(c2)OCC[C@H]3CNc2cnccc2C(=O)O)cc1 | 8.09 |

###

# Tested on: 301 cancer cell lines from different tumor types (OncoPanel; HD Biosciences)
# MEASUREMENT_DESCRIPTION: 2D cell viability inhibition assay (CellTiter-Glo) in cancer cell line panel
# Assay type: cell-based
# TEST_PARAMETERS: Homo sapiens, NCI-H520, NCIH520 cell line
pEC50: −log10 of the molar value.
MEASURED_QUANTITY: pEC50

| COMPOUND | MEASURED_QUANTITY | MEASURED_VALUE |
| --- | --- | --- |
| CC(C)c1ccc(N(C)c2ccc3c(c2)OCC[C@H]3CNc2cnccc2C(=O)O)cc1 [Compound 1] | pEC50 | 8.30 |

###

# Tested on: 301 cancer cell lines from different tumor types (OncoPanel; HD Biosciences)
# MEASUREMENT_DESCRIPTION: 2D cell viability inhibition assay (CellTiter-Glo) in cancer cell line panel
# Format: cell-based
# TEST_PARAMETERS: Homo sapiens, KATO III, KATOIII cell line
pEC50: −log10 of the molar value.

| SUBSTANCE_SMILES | pEC50 |
| --- | --- |
| CC(C)c1ccc(N(C)c2ccc3c(c2)OCC[C@H]3CNc2cnccc2C(=O)O)cc1 | 7.39 |

###

# Tested on: 301 cancer cell lines from different tumor types (OncoPanel; HD Biosciences)
# MEASUREMENT_DESCRIPTION: 2D cell viability inhibition assay (CellTiter-Glo) in cancer cell line panel
# Type: cell-based
# TEST_PARAMETERS: Homo sapiens, TE-5, TE5 cell line

| SUBSTANCE_SMILES | IC50 [nM] |
| --- | --- |
| CC(C)c1ccc(N(C)c2ccc3c(c2)OCC[C@H]3CNc2cnccc2C(=O)O)cc1 | 8.47 |

###

# Test system: 301 cancer cell lines from different tumor types (OncoPanel; HD Biosciences)
# MEASUREMENT_DESCRIPTION: 2D cell viability inhibition assay (CellTiter-Glo) in cancer cell line panel
# Assay type: cell-based
# TEST_PARAMETERS: Homo sapiens, WM-115, WM115 cell line
MEASURED_QUANTITY: EC50 (nM)

| SUBSTANCE_SMILES | TESTED_TARGET | MEASURED_VALUE |
| --- | --- | --- |
| CC(C)c1ccc(N(C)c2ccc3c(c2)OCC[C@H]3CNc2cnccc2C(=O)O)cc1 | 301 cancer cell lines from different tumor types (OncoPanel; HD Biosciences) | 2.5 |

###

# System: 301 cancer cell lines from different tumor types (OncoPanel; HD Biosciences)
# MEASUREMENT_DESCRIPTION: 2D cell viability inhibition assay (CellTiter-Glo) in cancer cell line panel
# Assay type: cell-based
# TEST_PARAMETERS: Homo sapiens, HT-1080, HT1080 cell line

| COMPOUND | TESTED_TARGET | EC50 |
| --- | --- | --- |
| CC(C)c1ccc(N(C)c2ccc3c(c2)OCC[C@H]3CNc2cnccc2C(=O)O)cc1 [Compound 1] | 301 cancer cell lines from different tumor types (OncoPanel; HD Biosciences) | 12.8 nM |

###

# System: 301 cancer cell lines from different tumor types (OncoPanel; HD Biosciences)
# MEASUREMENT_DESCRIPTION: 2D cell viability inhibition assay (CellTiter-Glo) in cancer cell line panel
# Format: cell-based
# TEST_PARAMETERS: Homo sapiens, NCI-H1838, 168 h, NCIH1838; lung, non-small cell carcinoma; 168 hours

| SUBSTANCE_SMILES | IC50 |
| --- | --- |
| CC(C)c1ccc(N(C)c2ccc3c(c2)OCC[C@H]3CNc2cnccc2C(=O)O)cc1 | > 10 µM |

###

# System: 301 cancer cell lines from different tumor types (OncoPanel; HD Biosciences)
# MEASUREMENT_DESCRIPTION: 2D cell viability inhibition assay (CellTiter-Glo) in cancer cell line panel
# Assay type: cell-based
# TEST_PARAMETERS: Homo sapiens, Daudi, DAUDI cell line
pEC50: −log10 of the molar value.

| MOLECULE | TESTED_TARGET | pEC50 |
| --- | --- | --- |
| CC(C)c1ccc(N(C)c2ccc3c(c2)OCC[C@H]3CNc2cnccc2C(=O)O)cc1 [Compound 1] | 301 cancer cell lines from different tumor types (OncoPanel; HD Biosciences) | 7.87 |

###

# Tested on: 301 cancer cell lines from different tumor types (OncoPanel; HD Biosciences)
# MEASUREMENT_DESCRIPTION: 2D cell viability inhibition assay (CellTiter-Glo) in cancer cell line panel
# Format: cell-based
# TEST_PARAMETERS: Homo sapiens, ASPC1, ASPC1 cell line

| COMPOUND | MEASUREMENT_UNITS | IC50 |
| --- | --- | --- |
| CC(C)c1ccc(N(C)c2ccc3c(c2)OCC[C@H]3CNc2cnccc2C(=O)O)cc1 [Compound 1] | nM | 66.8 |

###

# Test system: 301 cancer cell lines from different tumor types (OncoPanel; HD Biosciences)
# MEASUREMENT_DESCRIPTION: 2D cell viability inhibition assay (CellTiter-Glo) in cancer cell line panel
# Type: cell-based
# TEST_PARAMETERS: Homo sapiens, SNU-5, SNU5 cell line

| SUBSTANCE_SMILES | MEASUREMENT_UNITS | IC50 |
| --- | --- | --- |
| CC(C)c1ccc(N(C)c2ccc3c(c2)OCC[C@H]3CNc2cnccc2C(=O)O)cc1 | nM | 146 |

###

# Tested on: 301 cancer cell lines from different tumor types (OncoPanel; HD Biosciences)
# MEASUREMENT_DESCRIPTION: 2D cell viability inhibition assay (CellTiter-Glo) in cancer cell line panel
# Format: cell-based
# TEST_PARAMETERS: Homo sapiens, DMS-79, DMS79 cell line
# Procedure: In a larger screening study, compound 1 was evaluated across a broad cancer cell line panel (OncoPanel; HD Biosciences) composed of 301 cancer cell lines from different tumor types. 2D cell viability inhibition assays were performed in multiwell plates seeded with cells from the panel. […] Cultures were incubated for 168 hours after which the number of viable cells in each test well was assessed using the CellTiter-Glo® Luminescent Cell Viability Assay. […]
MEASURED_QUANTITY: EC50 (nM)

| SUBSTANCE_SMILES | MEASURED_VALUE |
| --- | --- |
| CC(C)c1ccc(N(C)c2ccc3c(c2)OCC[C@H]3CNc2cnccc2C(=O)O)cc1 | 1.28 |

###

# System: 301 cancer cell lines from different tumor types (OncoPanel; HD Biosciences)
# MEASUREMENT_DESCRIPTION: 2D cell viability inhibition assay (CellTiter-Glo) in cancer cell line panel
# Type: cell-based
# TEST_PARAMETERS: Homo sapiens, ACHN, ACHN cell line
pEC50: −log10 of the molar value.

| COMPOUND | TESTED_TARGET | pEC50 |
| --- | --- | --- |
| CC(C)c1ccc(N(C)c2ccc3c(c2)OCC[C@H]3CNc2cnccc2C(=O)O)cc1 [Compound 1] | 301 cancer cell lines from different tumor types (OncoPanel; HD Biosciences) | 7.52 |

###

# System: 301 cancer cell lines from different tumor types (OncoPanel; HD Biosciences)
# MEASUREMENT_DESCRIPTION: 2D cell viability inhibition assay (CellTiter-Glo) in cancer cell line panel
# Type: cell-based
# TEST_PARAMETERS: Homo sapiens, PF-382, PF382 cell line

| SUBSTANCE_SMILES | MEASUREMENT_UNITS | EC50 |
| --- | --- | --- |
| CC(C)c1ccc(N(C)c2ccc3c(c2)OCC[C@H]3CNc2cnccc2C(=O)O)cc1 | nM | 1.89 |

###

# Tested on: 301 cancer cell lines from different tumor types (OncoPanel; HD Biosciences)
# MEASUREMENT_DESCRIPTION: 2D cell viability inhibition assay (CellTiter-Glo) in cancer cell line panel
# Type: cell-based
# TEST_PARAMETERS: Homo sapiens, WSUDLCL2, WSUDLCL2 cell line
# Method: In a larger screening study, compound 1 was evaluated across a broad cancer cell line panel (OncoPanel; HD Biosciences) composed of 301 cancer cell lines from different tumor types. 2D cell viability inhibition assays were performed in multiwell plates seeded with cells from the panel. […] Cultures were incubated for 168 hours after which the number of viable cells in each test well was assessed using the CellTiter-Glo® Luminescent Cell Viability Assay. […]
pIC50: −log10 of the molar value.

| SUBSTANCE_SMILES | pIC50 |
| --- | --- |
| CC(C)c1ccc(N(C)c2ccc3c(c2)OCC[C@H]3CNc2cnccc2C(=O)O)cc1 | 8.25 |
